assay target: Voltage-gated inwardly rectifying potassium channel KCNH2 (Homo sapiens) (UniProt Q12809)
Sequence (Q12809 whole entry, looked up): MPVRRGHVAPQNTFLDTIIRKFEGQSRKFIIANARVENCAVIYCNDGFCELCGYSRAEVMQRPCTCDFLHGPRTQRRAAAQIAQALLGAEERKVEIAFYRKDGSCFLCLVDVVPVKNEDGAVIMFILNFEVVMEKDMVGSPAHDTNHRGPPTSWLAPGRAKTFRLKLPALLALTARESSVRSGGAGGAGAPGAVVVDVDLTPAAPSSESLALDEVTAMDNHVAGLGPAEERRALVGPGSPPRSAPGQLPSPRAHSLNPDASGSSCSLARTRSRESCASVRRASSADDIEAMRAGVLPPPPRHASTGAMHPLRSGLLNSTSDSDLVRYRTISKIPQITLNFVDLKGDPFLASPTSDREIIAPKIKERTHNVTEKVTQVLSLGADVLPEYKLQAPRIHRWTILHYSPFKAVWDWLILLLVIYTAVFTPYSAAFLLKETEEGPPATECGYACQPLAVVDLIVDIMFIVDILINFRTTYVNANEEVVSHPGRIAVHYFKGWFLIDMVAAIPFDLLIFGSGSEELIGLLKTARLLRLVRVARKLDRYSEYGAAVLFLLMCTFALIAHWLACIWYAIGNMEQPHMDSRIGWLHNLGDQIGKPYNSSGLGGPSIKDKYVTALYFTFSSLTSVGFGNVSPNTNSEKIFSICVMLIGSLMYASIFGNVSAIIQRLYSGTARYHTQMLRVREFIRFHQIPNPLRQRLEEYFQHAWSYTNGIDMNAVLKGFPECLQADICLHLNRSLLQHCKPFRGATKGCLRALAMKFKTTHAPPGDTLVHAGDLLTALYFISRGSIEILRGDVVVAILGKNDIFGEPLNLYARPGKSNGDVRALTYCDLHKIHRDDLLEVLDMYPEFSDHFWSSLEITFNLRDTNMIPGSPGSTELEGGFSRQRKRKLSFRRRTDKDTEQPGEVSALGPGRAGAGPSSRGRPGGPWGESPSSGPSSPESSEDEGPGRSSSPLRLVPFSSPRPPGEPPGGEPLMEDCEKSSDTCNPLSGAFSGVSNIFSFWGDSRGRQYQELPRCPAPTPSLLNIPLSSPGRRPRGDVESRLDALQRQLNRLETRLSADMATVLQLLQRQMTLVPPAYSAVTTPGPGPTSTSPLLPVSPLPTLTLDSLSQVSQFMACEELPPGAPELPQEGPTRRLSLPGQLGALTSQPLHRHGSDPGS
test name: qHTS Assay for Small Molecule Inhibitors of the Human hERG Channel Activity (AID 588834);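 further: lower thallium flux fluorescence means stronger hERG block; nearly all actives have a fitted effect of over 50% in size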; further: potency means the concentration at half of the fitted maximal effect
condition details: U2OS BacMam hERG, FluxOR thallium flux fluorescence; series mostly up to 46.1 µM
Records with an inconclusive call do not appear. The source made the active and inactive calls. The call rests on the fitted dose curve; in most records, active means well fitted inhibition curve with a large enough effect; inconclusive means small, poorly fitted or top-dose-only effect; inactive means flat fitted curve, though single readings scatter.
measurement label: Potency

Below are worked cases with known answers.
compound | Potency
CCCCCCCCCC(=O)NC(CN1CCOCC1)[C@H](O)c1ccccc1 (some centres undefined) | 12.6 µM (active)
Cn1c(=O)c2c(nc(/C=C/c3cccc(Cl)c3)n2C)n(C)c1=O | 11.2 µM (active)
Nn1nnc2ccccc21 | inactive
CCCCCCCCCCCCCCSCC(=O)O | inactive
O=C(O)C1=CC(=C(c2ccc(O)c(C(=O)O)c2)c2ccc(O)c(C(=O)O)c2)C=CC1=O | inactive
Cn1ccnc1 | inactive
Cc1nc(N=Nc2ccc(S(=O)(=O)O)cc2S(=O)(=O)O)c(COP(=O)(O)O)c(C=O)c1O | inactive
Cn1c(=O)c2[nH]c(C3CCCC3)nc2n(C)c1=O | inactive
NC1(C(=O)O)CCc2cc(C(=O)O)ccc21 (centres undefined) | inactive
Fc1ccc(CN(C2=NCCN2)c2c(Cl)cccc2Cl)cc1 | 10 µM (active)

For each listed entry, give its Potency.
1. COc1cc(C(O)CO)ccc1O (centres undefined)
2. N[C@H](C(=O)O)[C@H](O)C(=O)O
3. NCC(O)(CS(=O)(=O)O)c1ccc(Cl)cc1 (centres undefined)
4. COC1(C2=NCCN2)COc2ccccc2O1 (centres undefined)
5. N#C/C(=C\c1ccc(O)c(O)c1)C(=O)NCCCNC(=O)/C(C#N)=C/c1ccc(O)c(O)c1

OUT:
["inactive", "inactive", "inactive", "inactive", "inactive"]

* * *

test name: qHTS for differential inhibitors of proliferation of Plasmodium falciparum line Dd2 (AID 1882); further: nearly all actives have a fitted effect of over 65% in size
condition details: Plasmodium falciparum Dd2 proliferation inhibition; series mostly up to 28.7 µM
Inconclusive results are not listed. Active and inactive are the calls of the source. The call rests on the fitted dose curve; in most records, active means well fitted inhibition curve with a large enough effect; inconclusive means small, poorly fitted or top-dose-only effect; inactive means flat fitted curve, though single readings scatter.
Response enum: active, inactive

// known answers, use as guide
molecule | label value
N#C/C(=C\c1ccc(O)c(O)c1)C(=O)NCCc1ccccc1 | active
NC(=O)c1ccccc1 | inactive
CC(C)NC[C@H](O)COc1ccc(CC(N)=O)cc1 | inactive

API: the following record is the query input.
IN: Which outcome was assigned to "CC(=O)/C(C)=N/O" in this test?
OUT: inactive

* * *

test name: Cytometry Cell-Based qHTS for Inhibitors of the mTORC1 Signaling Pathway in MEF cells (AID 2668)
condition details: mTORC1 pathway readout; series mostly up to 38.3 µM
Records with an inconclusive call do not appear. Active and inactive are the calls of the source. Calls follow the shape of the dose curve; as a rule, active = well fitted inhibition curve with a large enough effect; inconclusive = small, poorly fitted or top-dose-only effect; inactive = flat fitted curve, though single readings scatter.
Response enum: class 1 for active, class 0 for inactive

// known answers, use as guide
compound | label value
COc1ccc(CCn2nnnc2C2(c3ccc(C)cc3)CC2)cc1 | class 0
Cc1cc(Cn2cnc3c2C[C@@H](C(=O)O)N(C(=O)C(c2ccccc2)c2ccccc2)C3)ccc1N | class 0

IN: Which outcome was assigned to CC(N)(Cc1ccc(O)c(O)c1)C(=O)O (stereo not given) in this test?
OUT: class 0

IN: Which outcome was assigned to "Nc1nc2c(cnn2CCc2ccccc2)c2nc(-c3ccco3)nn12" in this test?
OUT: class 0

IN: Which outcome was assigned to "COc1ccc(NC(=O)c2ccc(-c3ccc(-c4noc(C)n4)cc3C)cc2)cc1N1CCN(C)CC1" in this test?
OUT: class 1

* * *

test name: qHTS Assay for Lipid Storage Modulators (AID 1519)
condition details: Drosophila S3 cells, BODIPY lipid droplet/cell ratio, laser cytometry; measured here: lipid channel max response; cells loaded with oleic acid
Results filed as inconclusive are left out.
Provide the reported max response of each item.
Give bare numbers, in %.

For each listed entry, give its max response.
1. NCCNS(=O)(=O)c1cccc2c(Cl)cccc12
2. O=c1onc2cnc3ccccc3n12
3. CCCCCCCCCCCCCCCCCCOC[C@H](COP(=O)([O-])OCC[N+](C)(C)C)OC
4. CC(N)=O
5. C=CCN1CCc2cc(O)c(O)cc2C(c2ccccc2)C1 (configuration not stated)
6. N=C(N)c1ccccc1
7. CC#CCOC(=O)c1c(C)nc2sc3c(c2c1N)CCC(O)C3 (configuration not stated)

OUT:
[-12.2, 54.9, 57.7, -17.3, -5.19, 1.79, 4.05]

For each listed entry, give its max response.
1. CCCn1c(=O)c2c(ncn2C)n(CCC)c1=O
2. CN(C)CCC(c1ccc(Br)cc1)c1ccccn1 (configuration not stated)
3. CC(C)(CO)Cc1cc(C(C)(C)C)c(O)c(C(C)(C)C)c1
4. N[C@@H](CCCC(=O)O)C(=O)O
5. CCCc1c(OCCCOc2ccc(OCC(=O)O)cc2)ccc(C(C)=O)c1O
6. O=c1onc2n1-c1cc(Br)ccc1OC2
7. C[N+](C)(C)CC=O
8. O=c1[nH]ccc2c(O)cccc12

OUT:
1: -33.5; 2: 17.8; 3: -34; 4: -26.8; 5: 51.4; 6: 68.1; 7: 40.1; 8: -29.5

* * *

assay target: Cytochrome P450 1A2 (Homo sapiens) (UniProt P05177)
Sequence (P05177 whole entry, looked up): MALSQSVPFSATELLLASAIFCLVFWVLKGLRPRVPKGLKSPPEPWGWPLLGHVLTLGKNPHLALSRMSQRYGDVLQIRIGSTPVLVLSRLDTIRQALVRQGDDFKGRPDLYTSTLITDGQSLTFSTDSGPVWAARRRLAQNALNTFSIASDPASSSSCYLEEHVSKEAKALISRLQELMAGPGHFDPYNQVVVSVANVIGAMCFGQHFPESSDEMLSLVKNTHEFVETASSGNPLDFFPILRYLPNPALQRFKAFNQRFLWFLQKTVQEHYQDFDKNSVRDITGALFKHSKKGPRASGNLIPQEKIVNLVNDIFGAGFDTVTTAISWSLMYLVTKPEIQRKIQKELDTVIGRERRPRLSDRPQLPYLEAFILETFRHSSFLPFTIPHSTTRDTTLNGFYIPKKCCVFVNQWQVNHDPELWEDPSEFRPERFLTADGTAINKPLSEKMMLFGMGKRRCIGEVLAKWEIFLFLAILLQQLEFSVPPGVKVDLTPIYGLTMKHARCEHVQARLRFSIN
test name: p450-cyp1a2 (AID 410)
condition details: recombinant CYP1A2, luciferin-ME demethylation, luminescence; series mostly up to 57 µM
Records with an inconclusive call do not appear. Active and inactive are the calls of the source. The call rests on the fitted dose curve.
Response enum: t (active), f (inactive)

// known answers, use as guide
compound structure string | assay target | label value
C#CCn1c(=O)c2c(ncn2C)n(C)c1=O | Cytochrome P450 1A2 (Homo sapiens) (UniProt P05177) | f
O=C(O)C1=CCNCC1 | Cytochrome P450 1A2 (Homo sapiens) (UniProt P05177) | f
Nc1ncnc2c1c(-c1ccc(Oc3ccccc3)cc1)cn2C1CCCC1 | Cytochrome P450 1A2 (Homo sapiens) (UniProt P05177) | t
O=C(O)c1cc2cc(F)ccc2[nH]1 | Cytochrome P450 1A2 (Homo sapiens) (UniProt P05177) | f
N[C@@H](CS(=O)O)C(=O)O | Cytochrome P450 1A2 (Homo sapiens) (UniProt P05177) | f

IN: Which outcome was assigned to "CNc1cc(NS(=O)(=O)c2ccc(N)cc2)nc(NC)n1" in this test?
OUT: f

IN: Which outcome was assigned to "NOCC(=O)O" in this test?
OUT: f

IN: Which outcome was assigned to "COc1ccc2c(c1)c(CC(=O)O)c(C)n2C(=O)c1ccccc1" in this test?
OUT: t

IN: Which outcome was assigned to "CN[C@H](CC(=O)O)C(=O)O" in this test?
OUT: f

IN: Which outcome was assigned to "O=c1onc2n1-c1cc(Br)ccc1OC2" in this test?
OUT: t

IN: Which outcome was assigned to "N#C/C(=C\c1ccc(O)c(O)c1)C(=O)NCCc1ccccc1" in this test?
OUT: t

IN: Which outcome was assigned to "CC(N)=O" in this test?
OUT: f

IN: Which outcome was assigned to "Nc1ccc2c3c(cccc13)C(=O)NC2=O" in this test?
OUT: t

* * *

assay target: Cytochrome P450 3A4 (Homo sapiens) (UniProt P08684)
Sequence (P08684 whole entry, looked up): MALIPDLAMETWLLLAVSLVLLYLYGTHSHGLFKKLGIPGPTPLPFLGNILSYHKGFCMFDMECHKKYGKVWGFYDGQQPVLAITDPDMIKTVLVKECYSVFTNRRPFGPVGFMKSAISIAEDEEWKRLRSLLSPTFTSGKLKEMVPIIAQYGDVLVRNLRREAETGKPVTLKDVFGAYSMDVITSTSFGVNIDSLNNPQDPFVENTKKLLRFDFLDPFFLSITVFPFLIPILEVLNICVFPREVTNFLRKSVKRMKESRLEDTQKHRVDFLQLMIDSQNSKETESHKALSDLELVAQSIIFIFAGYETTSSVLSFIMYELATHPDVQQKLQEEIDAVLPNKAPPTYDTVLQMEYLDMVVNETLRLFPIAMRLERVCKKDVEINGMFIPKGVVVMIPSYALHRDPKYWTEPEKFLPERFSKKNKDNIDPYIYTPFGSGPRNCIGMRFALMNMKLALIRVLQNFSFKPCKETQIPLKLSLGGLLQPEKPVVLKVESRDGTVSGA
test name: qHTS Assay for Activators of Cytochrome P450 3A4 (AID 885); further: nearly all actives have a fitted effect of over 65% in size
condition details: recombinant CYP3A4, Luciferin-PPXE luminescence, 60 min; series mostly up to 57.1 µM
Activity calls are given as the source filed them. Calls follow the shape of the dose curve; as a rule, active = well fitted activation curve with a large enough effect; inconclusive = small, poorly fitted or top-dose-only effect; inactive = no such curve, though single readings can be large or run the other way. Residues, ends and D or L forms follow the SMILES beside them. *: point of attachment. Cbz = O=C(OCc1ccccc1)*
Response enum: 1 = active, 0 = inactive

// known answers, use as guide
compound | label value
CCc1ccc2c(-c3cccc(Cl)c3)nc(=O)n(CC)c2n1 | 0
CC(C)[C@H](NC(=O)OCc1ccccc1)C(=O)N[C@H](C=O)Cc1ccccc1 (Cbz-Val-Phe-aldehyde) | 0
Nc1ncnc2c1c(-c1ccc(Oc3ccccc3)cc1)cn2C1CCCC1 | 1

IN: Which outcome was assigned to "Clc1nccc2c1ccc1ccccc12" in this test?
OUT: 0

IN: Which outcome was assigned to "O=c1onc2n1-c1cc(Br)ccc1OC2" in this test?
OUT: 0

IN: Which outcome was assigned to "Cc1nc(N=Nc2cc(S(=O)(=O)O)c3cc([N+](=O)[O-])cc(S(=O)(=O)O)c3c2)c(COP(=O)(O)O)c(C=O)c1O" in this test?
OUT: 0

* * *

test name: qHTS Assay for Identifying Gametocytocidal Compounds (AID 743244);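 further: on the % scale 0 is the no-effect control and ±100 the full control effect; actives lower the fluorescent signal which means gametocytes are killed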
condition details: P. falciparum 3D7 stage III-V gametocytes, alamarBlue, 72 h; stronger effect = lower value
Records with an inconclusive call do not appear.
measurement label: max response (%)
One number for each entry, in %.

Below are worked cases with known answers.
compound | measurement label | observed measurement
CN1CCc2cc(Cl)c(O)cc2[C@@H](c2ccccc2)C1 | max response | 34.1
Cc1nc(N=Nc2ccc(C(=O)O)cc2)c(COP(=O)(O)O)c(C=O)c1O | max response | 5.37
Brc1c(Br)c(Br)c2[nH]cnc2c1Br | max response | 7.09
NCCC1CCCC(CCN)N1 (centres undefined) | max response | 30.6

For each listed entry, give its max response.
1. N=C(N)SCCc1cnc[nH]1
2. C=CC1(C)CC(=O)C2(O)C(C)(O1)C(OC(C)=O)C(O)C1C(C)(C)CCC(O)C12C (centres undefined)
3. COc1ccccc1N1CCN(CCCCN2C(=O)c3ccccc3C2=O)CC1
4. Nc1ccc2c3c(cccc13)C(=O)NC2=O

OUT:
9.89
15.4
10.1
4.5

For each listed entry, give its max response.
1. COc1ccc(CCN(C)CCc2ccc(OC)c(OC)c2)cc1OC
2. N=C(N)SCCN
3. CCOC(=O)C12CC1/C(=N/O)c1ccccc1O2 (centres undefined)
4. c1ccc(C(NCCNC(c2ccccc2)c2ccccc2)c2ccccc2)cc1
5. Nc1nc2ccc(Cl)cc2c2nc(-c3ccco3)nn12
6. O=C(OCCN1CCOCC1)C1(c2ccccc2)CCCCC1
7. O=c1onc2n1-c1cc(Br)ccc1OC2
8. COC(=O)[C@H](NC(=O)c1cc(-c2ccccc2)nc2ccccc12)c1ccccc1

OUT:
1: 12.4; 2: -1.63; 3: 0.715; 4: -2.86; 5: -3.79; 6: 16.2; 7: 20.4; 8: 9.97

For each listed entry, give its max response.
1. COc1ccccc1N1CCN(CCN(C(=O)c2ccc(F)cc2)c2ccccn2)CC1
2. Nc1ncnc2c1ncn2C1CCCO1 (centres undefined)
3. CC(C)(C)NCC(O)COc1cccc2[nH]c(=O)[nH]c12 (centres undefined)
4. NS(=O)(=O)c1cccc2c1c([N+](=O)[O-])cc1nc(O)c(O)nc12
5. C[C@H]1CC2C3CCC4=CC(=O)C=C[C@]4(C)[C@@]3(Cl)[C@@H](O)C[C@]2(C)[C@@]1(O)C(=O)CO (some centres undefined)

OUT:
1: 23.7; 2: -5.04; 3: 25.5; 4: 24.6; 5: -6.5
